Examples of molecules with documented inhibition at 1 µM follow.
System: A2780
Assay: Cytotoxicity assay (propidium iodide), A2780
Assay type: cell-based
Details: Homo sapiens; A2780 (C3a); 1 μM
MEASURED_ENDPOINT: inhibition at 1 µM

STRUCTURE_SMILES_STRING | MEASURED_ENDPOINT | ENDPOINT_VALUE
Cc1ccc(NC(=O)N(C)/N=C/c2cnc3ccc(-c4cccnc4)cn23)cc1 | inhibition at 1 µM | 30 to 50%
Cc1ccc(F)c(NC(=O)N(C)/N=C/c2cnc3ccc(-c4cccnc4)cn23)c1 | inhibition at 1 µM | 30 to 50%
Cc1ccc(F)cc1NC(=O)N(C)/N=C/c1cnc2ccc(-c3cccnc3)cn12 | inhibition at 1 µM | 30 to 50%
CN(/N=C/c1cnc2ccc(-c3cccnc3)cn12)C(=S)Nc1ccc(C#N)cc1 | inhibition at 1 µM | 30 to 50%
COc1ccc(Br)cc1S(=O)(=O)N(C)/N=C/c1cnc2ccc(-c3cccnc3F)cn12 | inhibition at 1 µM | > 50%
COc1ccc(NC(=S)N(C)/N=C/c2cnc3ccc(-c4cccnc4)cn23)cc1 | inhibition at 1 µM | 30 to 50%

----------
Examples of compounds with documented IC50 follow.
Test system: IL-6
Assay: Human monocyte assay, LPS-stimulated IL-6
Format: cell-based
Details: human monocytes, 1 μg/ml LPS, 5 hours
MEASURED_ENDPOINT: IC50

COMPOUND | TESTED_SYSTEM | ENDPOINT_VALUE
Cc1cc(-c2cccnc2)cn2c(/C=N/N(C)S(=O)(=O)c3c(F)cc(F)cc3Br)cnc12 [Example 112] | IL-6 | ≥ 5 µM
Cc1cc(-c2cccnc2)cn2c(/C=N/N(C)S(=O)(=O)c3cc(F)cc(F)c3)cnc12 [Example 101] | IL-6 | 0.001 to 5 µM
CN(N=Cc1cnc2ccc(Br)cn12)C(=S)Nc1ccc(C(F)(F)F)cc1 [Example 152] | IL-6 | 0.001 to 5 µM
CN(/N=C/c1cnc2ccc(-c3cccnc3)cn12)C(=S)NCCN1CCOCC1 [Example 148] | IL-6 | ≥ 5 µM
Cc1cccc(S(=O)(=O)N(C)N=Cc2cnc3ccc(-c4cccnc4)cn23)c1 [Example 2] | IL-6 | 0.001 to 5 µM
Cc1ccc(F)c(NC(=O)N(C)N=Cc2cnc3ccc(Br)cn23)c1 [Example 146] | IL-6 | ≥ 5 µM
COC(=O)c1ccc(S(=O)(=O)N(C)/N=C/c2cnc3ccc(-c4cccnc4)cn23)o1 [Example 73] | IL-6 | ≥ 5 µM
Cc1ccc(F)cc1S(=O)(=O)N(C)/N=C/c1cnc2ccc(-c3ccc(Cl)nc3)cn12 [Example 135] | IL-6 | 0.001 to 5 µM
COc1ncc(-c2ccc3ncc(/C=N/N(C)S(=O)(=O)c4cc(F)ccc4C)n3c2)cn1 [Example 138] | IL-6 | ≥ 5 µM
CN(N=Cc1cnc2ccc(Br)cn12)C(=S)NCCN1CCOCC1 [Example 151] | IL-6 | 0.001 to 5 µM

----------
Test system: H460
Assay: Cytotoxicity assay (propidium iodide), H460
Format: cell-based
Conditions: Homo sapiens, NCI-H460; H460 (C1b, lung); 48 hours
Examples of compounds with documented IC50 follow.

STRUCTURE_SMILES_STRING | TESTED_SYSTEM | IC50
COc1ccc(S(=O)(=O)N(C)N=Cc2cnc3ccc(-c4cccnc4)cn23)cc1 | H460 | 0.01 to 5 µM
COc1ccc(F)cc1S(=O)(=O)N(C)/N=C/c1cnc2ccc(-c3cccnc3)cn12 | H460 | 0.01 to 5 µM
CN(N=Cc1cnc2ccc(-c3cccnc3)cn12)S(=O)(=O)c1ccc(F)c(Cl)c1 | H460 | > 5 µM
CN(N=Cc1cnc2ccc(-c3cccnc3)cn12)S(=O)(=O)c1cc(C(F)(F)F)cc(C(F)(F)F)c1 | H460 | 0.01 to 5 µM
